- Tested on: Escherichia coli (ATCC 25922)
- method-summary: MIC/MBC broth dilution, E. coli
- Assay type: cell-based
- test-settings: broth dilution, 37 °C, 18 h
- From the text: […]
measurement-kind: M.I.C. E. coli (µg/mL)
Numbers only, in µg/mL.

COC(Cn1ccn(C)[c]1=[Ru]1[O]C(=O)C(=O)[O]1)c1ccccc1.Cc1ccc(C(C)C)cc1 (stereo not drawn); 50
COC(Cn1[c](=[Ru]([Cl])[Cl])n(C)c2ccccc21)c1ccccc1.Cc1ccc(C(C)C)cc1 (stereo not drawn); 25
CN1C=CN2CC(c3ccccc3)[O+](C)[Ru]([Cl])=[C]12.Cc1ccc(C(C)C)cc1.F[P-](F)(F)(F)(F)F (stereo not drawn); 25
COC(Cn1ccn(C)[c]1=[Ru]([I])[I])c1ccccc1.Cc1ccc(C(C)C)cc1 (stereo not drawn); 50
COC(Cn1c(Cl)c(Cl)n(C)[c]1=[Ru]([Cl])[Cl])c1ccccc1.Cc1ccc(C(C)C)cc1 (stereo not drawn); 50

Pending molecule:
Asked: Record COC(Cn1ccn(C)[c]1=[Ru]([Cl])[Cl])c1ccccc1.Cc1ccc(C(C)C)cc1 (stereo not drawn) : what is its M.I.C. E. coli with Escherichia coli (ATCC 25922)?
Given back: 50
